Known MIC50 of a selection of compounds
- Test system: Escherichia coli
- PROTOCOL SUMMARY: Antimicrobial activity against Escherichia coli by broth microdilution assay
- Format: functional
# unit: µg/mL | format: bare number

Worked examples, 5 compounds total:
COMPOUND | UNIT TEXT | MIC50
c1ccc(C2c3cc(Cc4ccc5c(c4)C(c4ccccc4)C4Cn6cccc6C4N5)ccc3NC3c4cccn4CC32)cc1 (stereo unspecified) | µg/mL | 2
O=C(O)c1cn(C2CC2)c2cc(N3CCNCC3)c(F)cc2c1=O | µg/mL | 0.015
c1ccc(C2c3ccccc3N[C@H]3c4cccn4C[C@@H]23)cc1 (stereo partly specified) | µg/mL | 2
COc1ccc2c(c1)C(c1ccccc1)[C@@H]1Cn3cccc3[C@@H]1N2 (stereo partly specified) | µg/mL | 0.125
Cn1c(=O)c2cc3n(c2n(C)c1=O)CC1C3Nc2ccc(Cl)cc2C1(C)C (stereo unspecified) | µg/mL | 0.06

In the following, a different compound is considered.
Write down the reported MIC50 of O=C1c2ccccc2C(=O)C12Nc1ccc(Br)cc1[C@H]1OCCC[C@H]12 , test system: Escherichia coli.
2

Ref: ChEMBL document CHEMBL1140876
